protocol-text: chemical genetic growth profiling, strain panel (AID 1159580);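 also: tested at 20 µM; growth read once vehicle control cultures reached saturation at 30 °C; 1 = growth at the plate median or of vehicle wells; lower values mean less growth of the strain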
conditions-used: S. cerevisiae deletion strains, growth OD, locus YHR030C, strain SLT2, active compounds read low
The whole screen tested about 5,500 compounds, of which about 2,000 (36%) were called active. Another 18% or so got no clear call; they are omitted. Some of the results follow.
Strictly below 0.9 in normalized growth: yes. Otherwise: no.

Task: Is normalized growth of NC(=S)N/N=C\c1cccs1 strictly below 0.9?
Result: no

Task: Is normalized growth of FC(F)(F)c1cccc(NNC(=S)Nc2ccccc2)c1 strictly below 0.9?
Result: yes

Task: Is normalized growth of CC(C)(CO)C(O)C(=O)NCCC(=O)NCCSSCCNC(=O)CCNC(=O)C(O)C(C)(C)CO (stereo not given) strictly below 0.9?
Result: no

Task: Is normalized growth of O=C(CCCCCCCCCCCCC1CCCC1)Nc1ccc(S(=O)(=O)c2ccc(NC(=O)CCCCCCCCCCCCC3CCCC3)cc2)cc1 strictly below 0.9?
Result: no

Task: Is normalized growth of O=C(Nc1ccc(N2CCOCC2)cc1)c1ccc(-n2cccn2)cc1 strictly below 0.9?
Result: no

Task: Is normalized growth of CN(C)CCOc1ccc(/C(=C(/CCCl)c2ccccc2)c2ccccc2)cc1 strictly below 0.9?
Result: yes

Task: Is normalized growth of CCCc1cc(Br)c(-n2cccc2)c(Br)c1 strictly below 0.9?
Result: no

Task: Is normalized growth of CC(C)(C)C(=O)NC(=S)Nc1cccc(C(F)(F)F)c1 strictly below 0.9?
Result: yes

Task: Is normalized growth of Cn1c(CSCCOc2ccccc2)nnc1SCc1ccc(Cl)cc1Cl strictly below 0.9?
Result: yes

---

protocol-text: chemical genetic growth profiling, strain panel (AID 1159580);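 also: tested at 20 µM; growth read once vehicle control cultures reached saturation at 30 °C; 1 = growth at the plate median or of vehicle wells; lower values mean less growth of the strain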
conditions-used: S. cerevisiae deletion strains, growth OD, locus YHR087W, strain rtc3
Screen size: about 5,500 compounds; about 2,000 (36%) were called active. Another 18% or so got no clear call; they are omitted. Rule as the data show it: active = normalized growth mostly below about 0.91 (no sharp cut-off); inconclusive = no clear call, values can overlap the other calls; inactive = mostly above about 0.92. Some of the results follow.
Tick one outcome: active, inactive

Task: Please indicate how the test categorized O=C(NC(=S)NCc1ccncc1)c1ccccc1 .
Result: inactive

Task: Please indicate how the test categorized CC1CCN(C(=O)CC#N)CC1 .
Result: inactive

Task: Please indicate how the test categorized Fc1cccc(Cl)c1CSc1nncn1-c1ccc(OCc2ccccc2)cc1 .
Result: inactive

Task: Please indicate how the test categorized COc1cccc(C2C3=C(CC(C)(C)CC3=O)OC3=C2C(=O)CC(C)(C)C3)c1O .
Result: inactive

Task: Please indicate how the test categorized CCSc1sc(C(=O)OC)c(-c2ccc(Cl)cc2)c1C#N .
Result: inactive

Task: Please indicate how the test categorized NC(=S)N/N=C\c1cc(F)cc(F)c1 .
Result: inactive

Task: Please indicate how the test categorized N#Cc1c(N)sc2c1CCCCC2 .
Result: inactive

Task: Please indicate how the test categorized CN(C)C=Nc1nnc(Sc2ncccc2[N+](=O)[O-])s1 .
Result: inactive

Task: Please indicate how the test categorized COc1ccc(NS(=O)(=O)c2c(C)noc2C)cc1 .
Result: inactive

Task: Please indicate how the test categorized O=[N+]([O-])c1ccc2nsnc2c1 .
Result: active

Task: Please indicate how the test categorized Nc1ccccc1SCC(=O)Nc1c(F)cccc1F .
Result: inactive

---

protocol-text: chemical genetic growth profiling, strain panel (AID 1159580);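 also: tested at 20 µM; growth read once vehicle control cultures reached saturation at 30 °C; 1 = growth at the plate median or of vehicle wells; lower values mean less growth of the strain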
conditions-used: S. cerevisiae deletion strains, growth OD, locus YDL035C, strain GPR1, active compounds read low
Among all 5,500 compounds or so, about 2,000 (36%) were called active. Roughly 18% stayed inconclusive and do not appear here. The list shows a part of the results.
endpoint-name: normalized growth
Number only, no unit.

Task: Dear colleague, please send me the reported normalized growth for CCN(CC)CCNC(=O)c1cc(S(C)(=O)=O)ccc1OC when you can.
Result: 1.02

Task: Dear colleague, please send me the reported normalized growth for COc1cc(OC)c2c(=O)c(-c3ccccc3)c(C)oc2c1OC when you can.
Result: 1.02

Task: Dear colleague, please send me the reported normalized growth for Cc1ccc(/C(=C\CN2CCCC2)c2ccccn2)cc1 when you can.
Result: 1.02

Task: Dear colleague, please send me the reported normalized growth for CC(=O)Nc1cc([As](=O)(O)O)ccc1O when you can.
Result: 0.999

Task: Dear colleague, please send me the reported normalized growth for O=[N+]([O-])c1cc([As](=O)(O)O)ccc1O when you can.
Result: 1

Task: Dear colleague, please send me the reported normalized growth for c1ccc2c3c([nH]c2c1)CNCC3 when you can.
Result: 0.991

Task: Dear colleague, please send me the reported normalized growth for CC(=O)OC1CC(OC(C)=O)C2(C)C(CC(OC(C)=O)C3(C)C2CCC2(C)C(c4ccoc4)CC4OC423)C1(C)C (stereo not drawn) when you can.
Result: 1.01

Task: Dear colleague, please send me the reported normalized growth for Nc1ccc(S(=O)(=O)Nc2ccccn2)cc1 when you can.
Result: 1.01

---

protocol-text: chemical genetic growth profiling, strain panel (AID 1159580);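 also: tested at 20 µM; growth read once vehicle control cultures reached saturation at 30 °C; 1 = growth at the plate median or of vehicle wells; lower values mean less growth of the strain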
conditions-used: S. cerevisiae deletion strains, growth OD, locus YDR502C, strain sam2, active compounds read low
In all, about 5,500 compounds went through this assay and about 2,000 (36%) were called active. Another 18% or so got no clear call; they are omitted. Some of the results follow.
endpoint-name: normalized growth
Number only, no unit.

Task: Dear colleague, please send me the reported normalized growth for O=C1C=CC2=C3c4cc(O)c(O)cc4CC3(O)COC2=C1O (stereo not given) when you can.
Result: 1.01

Task: Dear colleague, please send me the reported normalized growth for C[C@H]1[C@H]2CCC3C4CC=C5C[C@@H](N(C)C)CC[C@]5(C)C4CC[C@@]32CN1C (stereo not given in full) when you can.
Result: 0.977

Task: Dear colleague, please send me the reported normalized growth for C=CC(C1=CC(=O)C(OC)=CC1=O)c1ccc(OC)cc1 (stereo not given) when you can.
Result: 0.893

Task: Dear colleague, please send me the reported normalized growth for Oc1c(I)cc(I)c2cccnc12 when you can.
Result: 0.106

Task: Dear colleague, please send me the reported normalized growth for NCC(O)c1ccc(O)cc1 (stereo not given) when you can.
Result: 0.988

Task: Dear colleague, please send me the reported normalized growth for CCN(CC)CCNC(=O)c1cc(S(C)(=O)=O)ccc1OC when you can.
Result: 1.01

Task: Dear colleague, please send me the reported normalized growth for CC(C)N(C(=O)SCC(Cl)=C(Cl)Cl)C(C)C when you can.
Result: 1

Task: Dear colleague, please send me the reported normalized growth for CC1(C)CC2C1(O)CCC1(C)C=CC(O)C21CO (stereo not given) when you can.
Result: 1.01

Task: Dear colleague, please send me the reported normalized growth for O=C1O[C@H](C(O)CO)C(O)=C1O (stereo not given in full) when you can.
Result: 0.996

Task: Dear colleague, please send me the reported normalized growth for O=c1[nH]c(=O)n(C2C[C@@H](O)[C@@H](CO)O2)cc1F (stereo not given in full) when you can.
Result: 1.01

Task: Dear colleague, please send me the reported normalized growth for OC[C@@H]1CCCN2CCCC[C@H]12 when you can.
Result: 1.01

Task: Dear colleague, please send me the reported normalized growth for c1ccc2c3c([nH]c2c1)CNCC3 when you can.
Result: 1.01

Task: Dear colleague, please send me the reported normalized growth for C=CC(C)(O)CC/C=C(\C)CCC=C(C)C (stereo not given) when you can.
Result: 0.978

Task: Dear colleague, please send me the reported normalized growth for NC(=NCCC[C@H](N)C(=O)O)NC(CCC(=O)O)C(=O)O (stereo not given in full) when you can.
Result: 1.01

Task: Dear colleague, please send me the reported normalized growth for Nc1ncnc2c1ncn2C1C[C@H](O)[C@@H](CO)O1 (stereo not given in full) when you can.
Result: 0.991

Task: Dear colleague, please send me the reported normalized growth for CCCCC1=NC2(CCCC2)C(=O)N1Cc1ccc(-c2ccccc2-c2nn[nH]n2)cc1 when you can.
Result: 0.982

Task: Dear colleague, please send me the reported normalized growth for C=CC(C1=CC(=O)C(OC)=CC1=O)c1ccc(O)cc1 (stereo not given) when you can.
Result: 0.967

Task: Dear colleague, please send me the reported normalized growth for O=C(O)/C=C/C=C/c1ccccc1 when you can.
Result: 0.914

Task: Dear colleague, please send me the reported normalized growth for CN/C(=C\[N+](=O)[O-])NCCSCc1ccc(CN(C)C)o1 when you can.
Result: 0.997

Task: Dear colleague, please send me the reported normalized growth for COc1ccc(C(Cl)=C(c2ccc(OC)cc2)c2ccc(OC)cc2)cc1 when you can.
Result: 1.01

Task: Dear colleague, please send me the reported normalized growth for Oc1c(Cl)cc(Cl)c2cccnc12 when you can.
Result: 0.0656

Task: Dear colleague, please send me the reported normalized growth for CC/C(=C(\c1ccccc1)c1ccc(OCCN(C)C)cc1)c1ccccc1 when you can.
Result: 0.0692

Task: Dear colleague, please send me the reported normalized growth for COc1cc(C(=O)NCc2ccc(OCCN(C)C)cc2)cc(OC)c1OC when you can.
Result: 0.985

Task: Dear colleague, please send me the reported normalized growth for CCC(Cc1c(I)cc(I)c(N)c1I)C(=O)O (stereo not given) when you can.
Result: 0.991

Task: Dear colleague, please send me the reported normalized growth for CCOP(=S)(OCC)SCn1c(=O)oc2cc(Cl)ccc21 when you can.
Result: 0.986

Task: Dear colleague, please send me the reported normalized growth for Oc1c(Br)cc(Br)c2cccnc12 when you can.
Result: 0.0753

Task: Dear colleague, please send me the reported normalized growth for O[N+]1=CC=CCC1=S.On1ccccc1=S.[Zn] when you can.
Result: 0.0617

Task: Dear colleague, please send me the reported normalized growth for CC(=O)c1c(O)c(C)c(O)c2c1OC1=CC(=O)C(C(C)=O)C(=O)C12C (stereo not given) when you can.
Result: 0.853

Task: Dear colleague, please send me the reported normalized growth for C=CC(C1=CC(=O)C(OC)=CC1=O)c1ccccc1 (stereo not given) when you can.
Result: 0.902

Task: Dear colleague, please send me the reported normalized growth for Oc1ccc(Cl)c2cccnc12 when you can.
Result: 0.0635

Task: Dear colleague, please send me the reported normalized growth for CC(=O)OC1CC(OC(C)=O)C2(C)C(CC(OC(C)=O)C3(C)C2CCC2(C)C(c4ccoc4)CC4OC423)C1(C)C (stereo not given) when you can.
Result: 1.02

Task: Dear colleague, please send me the reported normalized growth for CC(C)NCC(O)c1ccc(O)c(O)c1 (stereo not given) when you can.
Result: 0.999

Task: Dear colleague, please send me the reported normalized growth for CCN(CC)CCOc1ccc2c(c1)C(=O)c1cc(OCCN(CC)CC)ccc1-2 when you can.
Result: 0.99

Task: Dear colleague, please send me the reported normalized growth for CC(=O)O[C@@H]1CC2C(C)(C)C=CC(=O)[C@]2(C)C2CC[C@@]3(C)[C@H](c4ccoc4)OC(=O)C4OC43[C@@]21C (stereo not given in full) when you can.
Result: 0.991

Task: Dear colleague, please send me the reported normalized growth for CC(Cc1ccc(O)c(O)c1)C(C)Cc1ccc(O)c(O)c1 (stereo not given) when you can.
Result: 0.813

Task: Dear colleague, please send me the reported normalized growth for CN(C)CCOC(C)(c1ccccc1)c1ccccn1 (stereo not given) when you can.
Result: 0.998

Task: Dear colleague, please send me the reported normalized growth for CC(=O)OCC1(C)CCC2(C)CCC3(C)C4=CCc5c(cc(OC(C)=O)c(OC(C)=O)c5C)C4(C)CCC3(C)C2C1 (stereo not given) when you can.
Result: 0.984

Task: Dear colleague, please send me the reported normalized growth for CNC[C@@H](O)c1ccc(O)c(O)c1 when you can.
Result: 0.996

Task: Dear colleague, please send me the reported normalized growth for CC(=O)Oc1ccc(Cl)c2cccnc12 when you can.
Result: 0.0661

Task: Dear colleague, please send me the reported normalized growth for Nc1ncnc2c1ncn2C1O[C@H](COP(=O)(O)O)[C@@H](O)[C@H]1O (stereo not given in full) when you can.
Result: 0.632
